assay: Brain exposure assay in mice (brain-to-plasma ratio after oral administration); type: in vivo; settings: male, C57BL/6JNIFDC, oral, 100 mg/kg; mouse, 6 hr; unbound brain-to-plasma partition coefficient
Quick rule for you: Kp uu at 6 h at 0.6 or higher means yes, lower means no.

• CN(C)C(=O)N1CCC[C@H](c2ccc(NC(=O)OCc3cnco3)cc2)C1 = yes
• CN(C)S(=O)(=O)N1CC2(CC(Cc3ccc(NC(=O)OCc4cnco4)cc3F)C2)C1 = no
• CN(C)C(=O)N1CCC(Cc2ccc(NC(=O)OCc3cnco3)cc2F)CC1 = yes
• CN(C)C(=O)N1CC2(CC(c3ccc(NC(=O)OCc4cnco4)cc3F)C2)C1 = no

Q. Quick check, Kp uu at 6 h >= 0.6? CN(C)S(=O)(=O)N1CCC(Cc2ccc(NC(=O)OCc3cnco3)cc2)CC1
A. no

====

Measured AC1.4 Human values are reported for all entries that follow.
molecular target: human NAMPT (Homo sapiens (Human)); test: NMN fluorescence biochemical assay (human recombinant NAMPT enzyme assay)
Sequence (P43490 whole entry): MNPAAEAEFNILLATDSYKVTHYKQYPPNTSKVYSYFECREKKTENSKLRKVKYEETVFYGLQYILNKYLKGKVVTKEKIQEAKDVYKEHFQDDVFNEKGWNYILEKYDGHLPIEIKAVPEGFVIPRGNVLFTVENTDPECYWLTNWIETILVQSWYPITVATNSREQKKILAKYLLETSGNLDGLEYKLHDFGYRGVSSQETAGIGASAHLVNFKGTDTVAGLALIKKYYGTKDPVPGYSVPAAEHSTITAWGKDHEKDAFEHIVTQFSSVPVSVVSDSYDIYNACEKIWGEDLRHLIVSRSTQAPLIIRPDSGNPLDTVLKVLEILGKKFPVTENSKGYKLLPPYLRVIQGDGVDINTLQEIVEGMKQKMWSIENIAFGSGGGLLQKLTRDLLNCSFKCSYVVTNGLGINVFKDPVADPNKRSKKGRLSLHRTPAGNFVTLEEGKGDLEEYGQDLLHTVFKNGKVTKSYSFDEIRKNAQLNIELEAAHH
State the value with its unit after it.

• O=C(Nc1ccc(CC2CC3(C2)CN(C2COC2)C3)c(F)c1)OCc1cnco1 [Compound 397] = 0.98 µM

Q. Short answer please: AC1.4 Human, human NAMPT (Homo sapiens (Human)), entry Cc1ncoc1C(=O)NCc1ccc(NC(=O)OCc2ccc(Cl)cc2)cc1 [Compound 209]
A. 1.88 µM

Q. Same question for Cc1ncc(C(=O)NCc2ccc(NC(=O)OCc3ccc(Cl)cc3)cc2)cc1F [Compound 146] please.
A. 1.20 µM

Q. Same question for COc1ccc(COC(=O)Nc2ccc(COC3CCN(C4COC4)CC3)cc2)cc1 [Compound 291] please.
A. 3.97 µM

====

molecular target: human NAMPT (Homo sapiens (Human)); test: NMN fluorescence biochemical assay (human recombinant NAMPT enzyme assay)
Labelling: EC50 reported below 10 µM becomes Yes; at or above becomes No.

- CC(C)C(=O)N1CC2(CC(c3ccc(NC(=O)OCc4cnco4)cc3)C2)C1: No
- C[C@@H](c1ccc(NC(=O)OCc2ccc(Cl)cc2)cc1)N(C)C(=O)N1CCC1: Yes
- CS(=O)(=O)N1CC2(CC(Cc3ccc(NC(=O)OCc4cnco4)cc3F)C2)C1: No
- CCC(=O)N1CC2(CC(Cc3ccc(NC(=O)OCc4cnco4)cc3F)C2)C1: No
- O=C(Nc1ccc(CC2CCN(C3COC3)CC2)cc1)OCc1cncs1: No
- CC1CCN(C(=O)N[C@@H](C)c2ccc(NC(=O)OCc3ccc(Cl)cc3)cc2)CC1: Yes
- CC(C)(C)OC(=O)N1CCC(Cc2ccc(NC(=O)OCc3cnco3)cc2)CC1: No
- O=C(Nc1ccc(CC2CC3(C2)CN(C2COC2)C3)c(F)c1)OCc1cnco1: No
- CN(C)S(=O)(=O)N1CC2(CC(Cc3ccc(NC(=O)OCc4cnco4)cc3F)C2)C1: Yes
- O=C(Nc1ccc(CC2CC3(CCNC3)C2)c(F)c1)OCc1cnco1 (stereo not drawn): No

Q. Please check: EC50 for O=C(Nc1ccc(CN2CCC[C@@H]2c2cccnc2)cc1)OCc1cnco1 , strictly under 10 µM or not?
A. Yes

Q. Same question for CCC(=O)N1CCC(c2ccc(NC(=O)OCc3cnco3)cc2)CC1 please.
A. No

Q. Same question for COc1ccc(COC(=O)Nc2ccc(CN3CCN(C)CC3=O)cc2)cc1 please.
A. No

Q. Same question for COc1ccc(COC(=O)Nc2ccc(CN3CCN(C)C(=O)C3)cc2)cc1 please.
A. No

Q. Same question for CS(=O)(=O)N1CCN(Cc2ccc(NC(=O)OCc3ccc(Cl)cc3)cc2)CC1 please.
A. No

Q. Same question for CNS(=O)(=O)N1CCC(Cc2ccc(NC(=O)OCc3ccc(Cl)cc3)cc2)CC1 please.
A. Yes

Q. Same question for COC(=O)N1CCC[C@@H](c2ccc(NC(=O)OCc3cnco3)cc2)C1 please.
A. No

Q. Same question for CN1CCN(Cc2ccc(NC(=O)OCc3ccc(Cl)cc3)cc2)C(=O)C1 please.
A. Yes
